The reported measurements were obtained from patent US20130230533A1.

Provide the reported % Blockade of IFNγ release, MLR; D7 of each item.
test.target: T1, human CD48 (on primary human peripheral blood mononuclear cells) (human, UniProt P09326 27-220)
T1 sequence: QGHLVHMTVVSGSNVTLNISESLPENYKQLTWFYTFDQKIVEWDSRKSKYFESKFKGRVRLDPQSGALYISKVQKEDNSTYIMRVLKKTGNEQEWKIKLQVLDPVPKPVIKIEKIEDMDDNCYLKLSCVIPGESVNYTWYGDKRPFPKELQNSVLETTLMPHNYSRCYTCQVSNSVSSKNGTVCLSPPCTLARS
test.details: cell-based or functional assay
Answer format: number, then unit.

The examples below pair each entry with its known result.
binder="H4H1769Pa (antibody, human IgG4, V domains shown) VH: QVQLVQSGAEVKKPGASVKVSCKTSGYTFAGYGITWVRQAPGRGLEWMGWVSAYNGDTDYAQSLQGRVTMTTDTSTSTAYMELRSLRSDDTAMYYCARDRYSSSSGYFDYWGQGTLVTVSS VL: DIQMTQSPSSVSASVGDRVTITCRASQGISSWLAWHQQKPGKAPKVLIYAASSLHSGVPSRFSGSGSGTEFTLTISSLQPEDFATYYCQQANTFPYTFGQGTKLEIK" reported_measurement=51%
binder="H4H1763N (antibody, human IgG4, V domains shown, Human IgG4 Fc (H4H) form of 1763N) VH: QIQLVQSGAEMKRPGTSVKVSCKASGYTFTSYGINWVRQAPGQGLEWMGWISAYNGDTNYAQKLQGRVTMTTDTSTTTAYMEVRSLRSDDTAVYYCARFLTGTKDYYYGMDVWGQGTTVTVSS VL: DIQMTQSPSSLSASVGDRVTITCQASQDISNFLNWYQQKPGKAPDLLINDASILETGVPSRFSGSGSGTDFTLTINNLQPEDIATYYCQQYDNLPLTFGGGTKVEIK" reported_measurement=48%
binder="H4H1707N (antibody, V domains shown, Human IgG4 Fc (H4H) form of 1707N) VH: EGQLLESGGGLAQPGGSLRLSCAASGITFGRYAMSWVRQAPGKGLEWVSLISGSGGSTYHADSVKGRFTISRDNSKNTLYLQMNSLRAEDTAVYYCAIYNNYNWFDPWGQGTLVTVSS VL: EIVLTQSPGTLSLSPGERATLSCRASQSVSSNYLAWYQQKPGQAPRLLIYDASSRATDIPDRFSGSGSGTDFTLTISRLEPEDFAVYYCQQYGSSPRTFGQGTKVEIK" reported_measurement=62%

As a next step, examine the binder that follows.
// % Blockade of IFNγ release, MLR; D7 lookup, binder = H4H1771P (antibody, human IgG4, V domains shown, Human IgG4 Fc (H4H)) VH: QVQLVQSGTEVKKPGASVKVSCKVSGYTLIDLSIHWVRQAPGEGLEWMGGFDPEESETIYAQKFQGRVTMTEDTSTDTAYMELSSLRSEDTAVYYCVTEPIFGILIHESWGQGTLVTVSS VL: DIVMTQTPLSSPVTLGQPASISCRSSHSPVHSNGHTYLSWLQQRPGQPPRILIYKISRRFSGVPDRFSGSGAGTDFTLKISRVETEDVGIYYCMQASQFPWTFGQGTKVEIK , result: 36%
